B1: SCNN1D (parent)
chain: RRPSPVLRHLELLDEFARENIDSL

Variants of: B1
Assay: protein stability index of a GFP-peptide fusion (GPS, HEK-293T) (PSI 1-6); higher = more stable;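 further: lentivirally expressed fusions sorted by FACS into six bins by GFP to DsRed ratio, PSI derived from sequencing read proportions per bin multiplied by bin number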
Details: c terminus: a fixed tail appended
// 0 strictly below 3 in protein stability index; 1 otherwise

Some solved entries appear below for comparison.
mutation-key | group
S23F | 0
H9A | 0
L7Q | 1

Request: Reported protein stability index at or above 3? `L13S`
Response: 1

Request: Assess whether reported protein stability index for `L13Y` sits at 3 or higher.
Response: 1
